The following compounds are listed with their measured melting point values.
Structures can show the parent of a compound that is named as a salt.

Examples from the recorded data:
> print(dat)
                                   compound              value
1  C[C@@H]1CCCN1CCc1ccc2cc(-c3ccc(C#N)cc3)ccc2n1 (as salt: tartrate) [Example 42]             164 °C
2  C[C@@H]1CCCN1Cc1ccc2cc(-c3ccc(C#N)cc3)ccc2c1 (as salt: hydrochloride) [Example 6]  212.6 to 213.6 °C
3  C[C@@H]1CCCN1CCc1ccc2cc(-c3cccc(C#N)c3)ccc2c1 [Example 7]  228.5 to 231.6 °C

*Q* Give the value of melting point reported for the following: C[C@@H]1CCCN1CCc1ccc2cc(Br)ccc2c1 (as salt: HCl) [Example 2]
*A* 247.3 to 250.7 °C

*Q* Give the value of melting point reported for the following: C[C@@H]1CCCN1CCc1ccc2cc(-c3cccnc3)ccc2n1 (as salt: hydrochloride) [Example 51]
*A* 205 to 207 °C

*Q* Give the value of melting point reported for the following: C[C@@H]1CCCN1CCc1ccc2cc(-c3ccc(F)cc3)ccc2n1 (as salt: hydrochloride) [Example 43]
*A* 145 °C

*Q* Give the value of melting point reported for the following: COc1ccc(-c2ccc3nc(CCN4CCC[C@H]4C)ccc3c2)cc1 (as salt: hydrochloride) [Example 46]
*A* 165 °C (dec.)

*Q* Give the value of melting point reported for the following: C[C@@H]1CCCN1CCc1ccc2cc(-c3ccc(C(F)(F)F)cc3)ccc2n1 (as salt: hydrochloride) [Example 47]
*A* 143 to 145 °C (dec.)

*Q* Give the value of melting point reported for the following: C[C@@H]1CCCN1CCc1ccc2cc(C(=O)c3cccc(F)c3)ccc2n1 (as salt: hydrochloride) [Example 50]
*A* 162 to 164 °C (dec.)
